test.description: NPC library primary testing for decreased DLD-1 cell viability via CellTiter-Glo (AID 1117346)
condition.description: DLD-1 viability, CellTiter-Glo luminescence; at 20 µM (top of the series)
Calls of active or inactive are those of the source.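 Rule for the calls: active = compounds that lower survival of DLD-1 colon cancer cells in the luminescence readout, no cutoff given; inactive = the rest.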
Labels: Y = active, N = inactive

{"molecule": "N=C(N)N", "group.label": "N"}
{"molecule": "CC(C)NCC(O)COc1ccc(CCOCC2CC2)cc1 (stereo not given)", "group.label": "N"}
{"molecule": "COc1cc2c3cc1Oc1cc(ccc1O)C[C@@H]1c4c(cc(OC)c(O)c4Oc4ccc(cc4)C[C@@H]3N(C)CC2)CC[N+]1(C)C", "group.label": "N"}
{"molecule": "COCCCOc1cc(C[C@@H](C[C@H](N)[C@@H](O)C[C@H](C(=O)NCC(C)(C)C(N)=O)C(C)C)C(C)C)ccc1OC", "group.label": "N"}
{"molecule": "C=C1c2cccc(O)c2C(O)=C2C(=O)[C@]3(O)C(O)=C(C(N)=O)C(=O)[C@@H](N(C)C)[C@@H]3[C@@H](O)[C@H]12", "group.label": "Y"}
{"molecule": "CCN1CCCC1CNC(=O)c1cc(S(=O)(=O)CC)c(N)cc1OC (stereo not given)", "group.label": "N"}
{"molecule": "OCC(O)CN1CCN(c2ccccc2)CC1 (stereo not given)", "group.label": "N"}
{"molecule": "NC(=O)c1ncn([C@@H]2O[C@H](CO)[C@@H](O)[C@H]2O)n1", "group.label": "N"}
{"molecule": "CC(=O)N[C@@H](CS)C(=O)O", "group.label": "N"}
{"molecule": "C=Cc1c(C)c2cc3[nH]c(cc4nc(cc5nc(cc1[nH]2)C(C)=C5CCC(=O)O)C(CCC(=O)O)=C4C)c(C)c3C=C", "group.label": "Y"}
